The origin of these recorded values is ChEMBL document CHEMBL3272151.

assay: Binding affinity to chymotrypsin (unknown origin) assessed as acetylation at pH 7; conditions: Homo sapiens
VALUE KIND: log K
Form rule: numeric answer, no unit written next to it.

Some solved cases for reference:
1) CC(=O)N[C@H](C(=O)OC(C)C)C(C)C
-0.75
2) CCOC(=O)[C@H](Cc1ccccc1)NC(C)=O
2.42
3) N#Cc1ccc(C(=O)Oc2ccc([N+](=O)[O-])cc2)cc1
3.94

Supply recorded log K for `COc1ccc(C(=O)Oc2ccc([N+](=O)[O-])cc2[N+](=O)[O-])cc1` here.
4.96

Supply recorded log K for `CCOC(=O)CNC(C)=O` here.
-1.03

Supply recorded log K for `CCc1ccc(C(=O)Oc2ccc([N+](=O)[O-])cc2[N+](=O)[O-])cc1` here.
5.53

Supply recorded log K for `Cc1cccc(C(=O)Oc2ccc([N+](=O)[O-])cc2[N+](=O)[O-])c1` here.
4.75

Supply recorded log K for `N#Cc1ccc(C(=O)Oc2ccc([N+](=O)[O-])cc2[N+](=O)[O-])cc1` here.
5.94

---

experiment: Binding affinity to chymotrypsin (unknown origin); conditions: Homo sapiens
Categorized via log(1/Km): lo: < 2; mid: ≥ 2 and < 3; hi: ≥ 3

Below, 2 compounds whose answers are already recorded.
1) CCOC(=O)CNC(C)=O
lo
2) CCCCCC[C@H](NC(C)=O)C(=O)OC
mid

GET /class?item= `CCOC(=O)CNC(=O)c1ccccc1`
mid

GET /class?item= `CCOC(=O)[C@H](Cc1ccc(O)cc1)NC(C)=O`
hi

GET /class?item= `COC(=O)[C@H](CC(C)C)NC(C)=O`
mid

GET /class?item= `C[C@@H](NC(=O)OCc1ccccc1)C(=O)Oc1ccc([N+](=O)[O-])cc1`
hi

GET /class?item= `C[C@H](NC=O)C(=O)Oc1ccc([N+](=O)[O-])cc1`
hi

GET /class?item= `COC(=O)[C@H](C)NC(=O)c1ccccn1`
lo

GET /class?item= `CCOC(=O)[C@H](C)NC(C)=O`
lo

GET /class?item= `CC[C@H](NC(=O)c1ccccc1)C(=O)OC`
mid

GET /class?item= `CC(C)C[C@H](NC(=O)OCc1ccccc1)C(=O)Oc1ccc([N+](=O)[O-])cc1`
hi

GET /class?item= `CC(=O)N[C@@H](C)C(=O)Oc1ccc([N+](=O)[O-])cc1`
hi

---

assay: Binding affinity to chymotrypsin (unknown origin) assessed as acetylation at pH 7; conditions: Homo sapiens
Quick rule: log K of at least 4 means TRUE, below that means FALSE.

1. CC(C)c1ccc(C(=O)Oc2ccc([N+](=O)[O-])cc2)cc1
TRUE
2. CCOC(=O)[C@H](C)NC(=O)c1ccccc1
FALSE
3. COC(=O)[C@H](Cc1ccccc1)NC(C)=O
FALSE

Does log K meet or surpass 4 for `O=C(Oc1ccc([N+](=O)[O-])cc1[N+](=O)[O-])c1ccc(C(F)(F)F)cc1` ?
TRUE

Does log K meet or surpass 4 for `Cc1cccc(C(=O)Oc2ccc([N+](=O)[O-])cc2)c1` ?
FALSE

Does log K meet or surpass 4 for `CCCC[C@H](NC(C)=O)C(=O)OC` ?
FALSE

---

assay: Binding affinity to chymotrypsin (unknown origin) assessed as deacetylation; conditions: Homo sapiens
VALUE KIND: log K
Form rule: numeric answer, no unit written next to it.

Some solved cases for reference:
1. CCC(=O)Oc1ccc([N+](=O)[O-])cc1
-2.1
2. COC(=O)[C@H](Cc1ccc(O)cc1)NC(=O)c1ccccc1
2.08
3. CCC[C@H](NC(=O)OCc1ccccc1)C(=O)Oc1ccc([N+](=O)[O-])cc1
0.19

Let us move to another entry and its log K.
Supply recorded log K for `O=C(Cc1ccccc1)Oc1ccc([N+](=O)[O-])cc1` here.
-1.65

---

experiment: Binding affinity to chymotrypsin (unknown origin) assessed as hydrolysis; details: Homo sapiens
logKcat values by entry
Form rule: numeric answer, no unit written next to it.

Some solved cases for reference:
1) COC(=O)[C@@H](NC(C)=O)C(C)C
-0.82
2) C[C@H](OC(=O)CNC(=O)c1ccccc1)c1ccccc1
-0.13
3) CCOC(=O)[C@H](Cc1ccccc1)NC(C)=O
1.84
4) CCCOC(=O)CNC(=O)c1ccccc1
-0.9
5) COC(=O)[C@H](C)NC(=O)c1ccc2ccccc2n1
-2.4
6) CC(=O)c1ccc(OC(=O)[C@H](Cc2ccccc2)NS(C)(=O)=O)cc1
1.54
7) CC[C@H](C)OC(=O)CNC(=O)c1ccccc1
-1.04
8) Cc1ccc(OC(=O)CNC(=O)c2ccccc2)cc1
-0.21
9) CC(=O)N[C@@H](Cc1ccccc1)C(=O)O[C@@H](C)c1ccccc1
2.04
10) COc1ccc(OC(=O)[C@H](Cc2ccccc2)NS(C)(=O)=O)cc1
1.54

Supply recorded logKcat for `COC(=O)[C@H](C)NC(=O)c1cccnc1` here.
-0.24

Supply recorded logKcat for `CCC[C@H](NC(C)=O)C(=O)OCCCl` here.
0.57

Supply recorded logKcat for `CCCC[C@H](NC(C)=O)C(=O)OC` here.
0.92

Supply recorded logKcat for `CCOC(=O)[C@H](Cc1ccc(O)cc1)NC(=O)c1ccccc1` here.
1.93

Supply recorded logKcat for `COC(=O)[C@H](C)NC(=O)c1ccccc1N` here.
-0.62

---

test: Binding affinity to chymotrypsin (unknown origin) assessed as acetylation at pH 6; details: Homo sapiens
log K values by entry
Form rule: numeric answer, no unit written next to it.

Some solved cases for reference:
1. O=C(Oc1ccc([N+](=O)[O-])cc1)c1cccc(C(F)(F)F)c1
3.22
2. O=C(Oc1ccc([N+](=O)[O-])cc1)c1ccc(Cl)cc1
3.27
3. O=C(Oc1ccc([N+](=O)[O-])cc1)c1ccc(F)cc1
2.74
4. N#Cc1ccc(C(=O)Oc2ccc([N+](=O)[O-])cc2)cc1
3.35
5. COc1ccc(C(=O)Oc2ccc([N+](=O)[O-])cc2)cc1
2.78

Let us move to another entry and its log K.
Supply recorded log K for `O=C(Oc1ccc([N+](=O)[O-])cc1)c1ccc(C(F)(F)F)cc1` here.
3.41

---

test: Binding affinity to chymotrypsin (unknown origin) assessed as deacetylation; conditions: Homo sapiens
log K values by entry
Form rule: numeric answer, no unit written next to it.

Some solved cases for reference:
1) CCC[C@@H](NC(=O)OCc1ccccc1)C(=O)Oc1ccc([N+](=O)[O-])cc1
-0.82
2) CCOC(=O)[C@H](C)NC(=O)c1ccccc1
-0.22
3) CCOC(=O)[C@H](Cc1ccccc1)NC(C)=O
1.97
4) CC(C)[C@H](NC(=O)OCc1ccccc1)C(=O)Oc1ccc([N+](=O)[O-])cc1
-0.93
5) CCC[C@H](NC(=O)c1ccccc1)C(=O)OC
0.77
6) CCCCCCC(=O)Oc1ccc([N+](=O)[O-])cc1
-1.21
7) COC(=O)[C@H](CC(C)C)NC(C)=O
1.2
8) O=C(Oc1ccc([N+](=O)[O-])cc1)c1cccc(F)c1
-0.35
9) O=C(CCCCCl)Oc1ccc([N+](=O)[O-])cc1
-1.37
10) O=C(Oc1ccc([N+](=O)[O-])cc1)c1ccc([N+](=O)[O-])cc1
-3.44

Supply recorded log K for `C[C@H](NC(=O)OCc1ccccc1)C(=O)Oc1ccc([N+](=O)[O-])cc1` here.
0.48

Supply recorded log K for `CC[C@@H](NC(=O)OCc1ccccc1)C(=O)Oc1ccc([N+](=O)[O-])cc1` here.
-1.45

Supply recorded log K for `COC(=O)[C@@H](NC(C)=O)C(C)C` here.
-0.68

Supply recorded log K for `C[C@@H](NC=O)C(=O)Oc1ccc([N+](=O)[O-])cc1` here.
-1.14

Supply recorded log K for `O=C(Oc1ccc([N+](=O)[O-])cc1)c1cccc([N+](=O)[O-])c1` here.
-2.85

Supply recorded log K for `CC(C)C(=O)Oc1ccc([N+](=O)[O-])cc1` here.
-2.45

---

log K values by entry
experiment: Binding affinity to chymotrypsin (unknown origin) assessed as acetylation at pH 7; conditions: Homo sapiens

Some solved cases for reference:
1. CC(C)(C)c1ccc(C(=O)Oc2ccc([N+](=O)[O-])cc2)cc1
4.07
2. CC[C@H](NC(=O)c1ccccc1)C(=O)OC
-0.39
3. O=C(Oc1ccc([N+](=O)[O-])cc1)c1cccc(Cl)c1
3.77
4. COC(=O)CNC(C)=O
-0.31

Supply recorded log K for `COC(=O)CNC(=O)c1ccccc1` here.
-0.38

Supply recorded log K for `CC[C@H](NC(C)=O)C(=O)OC` here.
0.94

Supply recorded log K for `CCC[C@H](NC(=O)c1ccccc1)C(=O)OC` here.
0.62

Supply recorded log K for `O=C(Oc1ccc([N+](=O)[O-])cc1)c1ccc([N+](=O)[O-])cc1` here.
3.96

Supply recorded log K for `CCC[C@H](NC(C)=O)C(=O)OC` here.
1.55

Supply recorded log K for `O=C(Oc1ccc([N+](=O)[O-])cc1)c1cccc(C(F)(F)F)c1` here.
3.59

Supply recorded log K for `COC(=O)[C@H](Cc1ccccc1)NC(=O)c1ccccc1` here.
1.66

Supply recorded log K for `O=C(Oc1ccc([N+](=O)[O-])cc1)c1ccc(F)cc1` here.
3.11
